# Test system: Synechocystis PCC 6803
# protocol notes: Susceptibility of Synechocystis PCC 6803 to known herbicides (Table 2)
# Format: cell-based

| compound | Activity Rating (++ = highest) |
| --- | --- |
| CN(C)C(=O)Nc1ccc(Cl)cc1 [CMU] | + |
| N#Cc1cc(Br)c(O)c(Br)c1 | + |
| CN(C)C(=O)Nc1ccc(Cl)cc1 [Monuron] | ++ |
| CCOC(=O)Nc1cccc(OC(=O)Nc2ccccc2)c1 | ++ |
| CCNc1nc(Cl)nc(NCC)n1 | ++ |
| CN(C)C(=O)Nc1ccccc1 | ++ |
| COC(=O)Nc1cccc(OC(=O)Nc2cccc(C)c2)c1 | ++ |
